testedTarget: 5-HT2B receptor (Homo sapiens, UniProt P41595)
Construct: expressed in transfected cells; host or cells: HEK293T
Sequence (P41595 whole entry): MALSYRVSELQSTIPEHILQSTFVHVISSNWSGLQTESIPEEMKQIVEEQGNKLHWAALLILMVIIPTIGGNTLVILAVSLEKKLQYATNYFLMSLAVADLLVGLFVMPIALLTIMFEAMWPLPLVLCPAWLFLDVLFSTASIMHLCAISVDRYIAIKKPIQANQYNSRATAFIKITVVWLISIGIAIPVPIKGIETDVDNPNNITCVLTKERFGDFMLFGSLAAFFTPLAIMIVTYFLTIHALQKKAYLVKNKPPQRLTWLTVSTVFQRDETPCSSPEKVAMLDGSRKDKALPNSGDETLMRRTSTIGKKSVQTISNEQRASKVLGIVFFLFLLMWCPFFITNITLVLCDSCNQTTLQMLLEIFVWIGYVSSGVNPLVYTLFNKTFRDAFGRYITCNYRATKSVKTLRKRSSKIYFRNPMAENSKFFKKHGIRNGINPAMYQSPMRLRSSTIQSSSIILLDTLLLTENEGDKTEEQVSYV
experimentDescription: 5-HT2B Gq dissociation BRET functional assay
Type: cell-based
conditionLabel: Table 2; at least three replicate trials; read-out: 5-HT2B BRET EC50
Quick list: EC50 per entry.
Return type: number; implicit unit nM.

These recorded examples may help you get a feel for the data.
CSc1ccccc1CNC[C@@H]1CCc2cc(C#N)cc(O)c21	18.5
COc1cc(C#N)ccc1CCNCc1cccc2occc12	8920
COc1cc(Oc2ccccc2)ccc1CCNCc1ccccc1O	3.8

**Query** Lab note: need EC50 for CSc1ccccc1CNCCc1ccc(C#N)cc1O on 5-HT2B receptor (Homo sapiens, UniProt P41595), anyone have it?
**Result** 3140

**Query** Lab note: need EC50 for Oc1ccccc1CNCC(O)c1ccc(C(F)(F)F)cc1OCc1ccccc1 (centres unmarked) [Reference Compound 1a, reference compound] on 5-HT2B receptor (Homo sapiens, UniProt P41595), anyone have it?
**Result** 342

**Query** Lab note: need EC50 for CSc1ccccc1CCNCCc1ccc(C#N)cc1O on 5-HT2B receptor (Homo sapiens, UniProt P41595), anyone have it?
**Result** 620

**Query** Lab note: need EC50 for CSc1ccccc1CCCNCCc1ccc(C#N)cc1O on 5-HT2B receptor (Homo sapiens, UniProt P41595), anyone have it?
**Result** 502

**Query** Lab note: need EC50 for COc1cc(C#N)ccc1CCNCC1CC1 on 5-HT2B receptor (Homo sapiens, UniProt P41595), anyone have it?
**Result** 0.07

**Query** Lab note: need EC50 for N#Cc1ccc(CCNCc2ccccc2OC(F)(F)F)c(O)c1 on 5-HT2B receptor (Homo sapiens, UniProt P41595), anyone have it?
**Result** 453

**Query** Lab note: need EC50 for N#Cc1ccc(CCNCc2ccccc2O)cc1 on 5-HT2B receptor (Homo sapiens, UniProt P41595), anyone have it?
**Result** 6490

**Query** Lab note: need EC50 for CSc1ccccc1CNCCCc1ccc(C#N)cc1O on 5-HT2B receptor (Homo sapiens, UniProt P41595), anyone have it?
**Result** 7330

**Query** Lab note: need EC50 for COc1cc(C#N)ccc1CCNCc1cccs1 on 5-HT2B receptor (Homo sapiens, UniProt P41595), anyone have it?
**Result** 0.03

**Query** Lab note: need EC50 for COc1cc(-c2ncco2)ccc1CCNCc1ccccc1Cl on 5-HT2B receptor (Homo sapiens, UniProt P41595), anyone have it?
**Result** 5370

**Query** Lab note: need EC50 for COc1cc(Cc2ccccc2)ccc1CCNCc1ccccc1O on 5-HT2B receptor (Homo sapiens, UniProt P41595), anyone have it?
**Result** 0.02

// data source = patent US20250074871A1
